Each item that follows carries a reported Signal decrease.
biological target: T1, human CD137-Fc (human, biotin-labeled); experiment: bead ELISA on biotin-human CD137-Fc, free CD3e peptide vs free Fc
T1 construct: if 90 already holds the Fc, drop the second piece; also called biotin-labeled human CD137 fused to human IgG1 Fc fragment; biotin-human CD137-Fc; not shown: human IgG1 Fc fragment
T1 sequence (chain, as listed by the source): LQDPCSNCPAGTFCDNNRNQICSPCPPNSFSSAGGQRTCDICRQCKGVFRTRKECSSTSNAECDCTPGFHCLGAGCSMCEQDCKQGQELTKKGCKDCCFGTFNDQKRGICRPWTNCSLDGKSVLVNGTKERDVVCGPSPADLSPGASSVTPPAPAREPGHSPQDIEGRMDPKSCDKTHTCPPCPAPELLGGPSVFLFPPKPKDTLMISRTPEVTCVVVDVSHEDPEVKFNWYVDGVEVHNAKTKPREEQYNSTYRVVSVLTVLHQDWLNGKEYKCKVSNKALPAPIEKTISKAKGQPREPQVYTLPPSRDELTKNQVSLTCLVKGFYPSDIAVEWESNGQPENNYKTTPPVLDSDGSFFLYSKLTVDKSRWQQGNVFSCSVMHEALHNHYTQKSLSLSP
Please reply with the bare figure in % and do not write the unit itself.

binder: DADU01_3#018 (antibody, V domains shown, Human IgG1; light chain GLS3000 (kappa); also called dBBDu123) VH: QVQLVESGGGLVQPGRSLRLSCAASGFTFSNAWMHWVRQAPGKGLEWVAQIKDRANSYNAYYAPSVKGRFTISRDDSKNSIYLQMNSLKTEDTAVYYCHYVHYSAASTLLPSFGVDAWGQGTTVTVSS VL: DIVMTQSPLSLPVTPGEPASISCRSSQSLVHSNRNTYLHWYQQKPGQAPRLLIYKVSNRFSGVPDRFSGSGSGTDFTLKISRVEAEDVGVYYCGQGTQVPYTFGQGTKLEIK
Signal decrease (%): 92.3

Query string: So what's the measured Signal decrease for this one? anti-human CD137 antibody described in WO2005/035584A1 (abbreviated as B) (antibody, V domains shown, Control antibody; also called control anti-CD137 antibody) VH: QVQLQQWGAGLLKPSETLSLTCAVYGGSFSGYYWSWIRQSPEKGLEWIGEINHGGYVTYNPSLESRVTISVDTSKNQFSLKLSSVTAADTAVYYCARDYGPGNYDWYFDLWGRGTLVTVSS VL: EIVLTQSPATLSLSPGERATLSCRASQSVSSYLAWYQQKPGQAPRLLIYDASNRATGIPARFSGSGSGTDFTLTISSLEPEDFAVYYCQQRSNWPPALTFGGGTKVEIK
Result string: 0.94

Query string: Now this one: DXDU01_3#019 (antibody, V domains shown, Human IgG1; light chain GLS3000 (kappa); also called dBBDu125) VH: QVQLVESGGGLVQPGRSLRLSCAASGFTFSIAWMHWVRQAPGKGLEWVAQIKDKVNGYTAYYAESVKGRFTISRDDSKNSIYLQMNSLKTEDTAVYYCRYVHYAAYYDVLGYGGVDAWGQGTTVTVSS VL: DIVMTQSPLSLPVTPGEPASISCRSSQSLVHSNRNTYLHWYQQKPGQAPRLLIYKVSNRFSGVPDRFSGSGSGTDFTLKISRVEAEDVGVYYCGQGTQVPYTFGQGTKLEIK
Result string: 92.5

Query string: Param item: DXDU01_3#051 (antibody, V domains shown, Human IgG1; light chain GLS3000 (kappa); also called dBBDu127) VH: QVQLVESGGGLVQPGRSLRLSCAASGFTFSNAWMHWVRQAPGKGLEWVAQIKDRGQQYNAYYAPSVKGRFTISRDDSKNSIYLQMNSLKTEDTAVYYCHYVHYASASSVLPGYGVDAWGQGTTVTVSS VL: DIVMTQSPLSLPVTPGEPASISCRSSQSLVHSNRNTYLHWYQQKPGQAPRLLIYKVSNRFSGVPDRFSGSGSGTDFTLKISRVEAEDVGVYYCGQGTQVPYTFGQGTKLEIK
Result string: 91.6

Query string: # iterate: DADU01_3#001 (antibody, V domains shown, Human IgG1; light chain GLS3000 (kappa); also called dBBDu126; dBBDu_126) VH: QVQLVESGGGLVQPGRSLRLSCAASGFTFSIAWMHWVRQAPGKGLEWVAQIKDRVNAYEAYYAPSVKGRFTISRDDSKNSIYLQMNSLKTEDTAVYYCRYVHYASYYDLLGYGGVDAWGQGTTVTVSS VL: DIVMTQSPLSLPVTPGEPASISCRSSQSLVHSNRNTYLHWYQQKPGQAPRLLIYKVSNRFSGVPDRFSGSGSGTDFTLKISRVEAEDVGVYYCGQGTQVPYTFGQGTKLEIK
Result string: 81.3

Query string: Lookup DADU01_3#002 (antibody, V domains shown, Human IgG1; light chain GLS3000 (kappa); also called dBBDu124) VH: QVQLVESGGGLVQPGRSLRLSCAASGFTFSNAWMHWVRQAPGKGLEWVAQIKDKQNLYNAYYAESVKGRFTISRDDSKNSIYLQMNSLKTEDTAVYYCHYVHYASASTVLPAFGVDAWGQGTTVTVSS VL: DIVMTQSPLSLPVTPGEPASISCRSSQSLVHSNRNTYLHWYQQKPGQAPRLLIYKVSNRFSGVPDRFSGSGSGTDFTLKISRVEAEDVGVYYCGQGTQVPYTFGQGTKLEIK
Result string: 93.6
